# Tested on: OVCAR-5 ovarian
# Experiment Description: NCI-60 one-dose screen, 48 h (100 = growth as untreated, 0 = no growth, -100 = all killed)
# Measurement Context: 10 µM unless noted
About 83,000 compounds went through this panel and 20% of them were active in at least one assay; those are over-represented in the sample as a whole. Active and inactive are the calls of the source. How the source made its calls: active means growth percent below 10; inactive means the rest.
Metric: growth

- Compound: "COc1cc(OC)c(/C=C/C(=O)c2c(OC)cc(OC)cc2OC)c(OC)c1"
  Result: "29.1% (inactive)"
- Compound: "CC1=C(C)C(=O)OC([C@](C)(O)[C@]2(O)CC[C@@]3(O)[C@@H]4C[C@H]5O[C@]56CC=CC(=O)[C@]6(C)[C@H]4CC[C@]23COC(=O)c2ccc(C)o2)C1 (stereo not given in full)"
  Result: "-69.8% (active)"
- Compound: "O=C1C=CC(=O)c2c1nc1n2CCCC1"
  Result: "112% (inactive)"
- Compound: "Clc1cccc(Nc2nc(Nc3cnc4ccccc4c3)c3[nH]cnc3n2)c1"
  Result: "89.3% (inactive)"
- Compound: "Cc1csc2ccc(Cl)cc12"
  Result: "102% (inactive)"
- Compound: "CCC(c1ccccc1)C(CC)c1ccc(O)c(O)c1 (stereo not given)"
  Result: "115% (inactive)"
- Compound: "CN(C)c1ccc(C2Nc3ccccc3-n3cccc32)cc1 (stereo not given)"
  Result: "72% (inactive)"
- Compound: "CCN(CC)CC(C)Nc1ccc([N+](=O)[O-])c2sc3ccccc3c(=O)c12 (stereo not given)"
  Result: "53.9% (inactive)"
- Compound: "c1ccc(Sc2ncnc3ccccc23)cc1"
  Result: "98.4% (inactive)"
- Compound: "CCOc1ccc(Nc2nc(-c3c(C)nc4ncccn34)cs2)cc1"
  Result: "20.7% (inactive)"
- Compound: "CC/C(=C(\\c1ccccc1)c1ccc(OCCNC)cc1)c1ccccc1"
  Result: "-85.2% (active)"
- Compound: "COc1ccc(-c2cc(=O)[nH]c3c(OC)c4ccccc4c(OC)c23)cc1"
  Result: "36.3% (inactive)"
- Compound: "O=[N+]([O-])c1cccc(-c2nc3sccn3c2-c2ccnc(NCCNS(=O)(=O)c3ccc(C(F)(F)F)cc3)n2)c1"
  Result: "87.4% (inactive)"
- Compound: "CN1CCN(c2ccc3nc(-c4ccc5nc(-c6ccc(OCCC(C)(C)C)cc6)[nH]c5c4)[nH]c3c2)CC1"
  Result: "-2.35% (active)"
- Compound: "CN1C2CCC1/C(=C\\c1ccc(Cl)cc1)C1=C2[C@@H](c2ccc(Cl)cc2)C(C#N)=C(N)O1 (stereo not given in full)"
  Result: "84.5% (inactive)"
- Compound: "Cc1ccc(S(=O)(=O)N(CCc2ccc(Cl)cc2)S(=O)(=O)c2ccc(C)cc2)cc1"
  Result: "106% (inactive)"
- Compound: "O=C1/C(=C\\c2cn(C(=O)c3ccc(Cl)cc3)c3ccccc23)c2ccccc2N1c1c(Cl)cccc1Cl"
  Result: "94.3% (inactive)"
- Compound: "Nc1cccc(NC(=O)C(=O)Nc2cccc(N)c2)c1"
  Result: "94.5% (inactive)"
- Compound: "CCCCNC(=O)NS(=O)(=O)c1ccc(N2N=C(c3cc(C)ccc3C)CC2c2cc(OC)c(OC)c(OC)c2)cc1 (stereo not given)"
  Result: "95.9% (inactive)"
- Compound: "COc1ccc(/C=C2\\CN(C(=O)CCN3CCC(=NO)CC3)C/C(=C\\c3ccc(OC)cc3)C2=O)cc1"
  Result: "-4.94% (active)"

----------
# System: ACHN renal
# Experiment Description: NCI-60 one-dose screen, 48 h
# Measurement Context: 10 µM unless noted
About 83,000 compounds went through this panel and 20% of them were active in at least one assay; those are over-represented in the sample as a whole. Active and inactive are the calls of the source. Rule for the calls: active = growth percent below 10; inactive = the rest.
Outcome codes: 1 (yes) = active, 0 (no) = inactive

- Molecule: "Cc1nc2sc(C(=O)Nc3cccc4c3OCCO4)c(N)c2cc1C(C)O (stereo not given)"
  Study Target: "ACHN renal"
  Classification: "0 (no)"
- Molecule: "Nc1ccc(Nc2nccc(-c3ccc4ccccc4c3)n2)cc1"
  Study Target: "ACHN renal"
  Classification: "0 (no)"
- Molecule: "CCOC(=O)c1c2c(n3ccc(NC(=O)CCN4CCOCC4)cc13)C(=O)c1ncccc1C2=O"
  Study Target: "ACHN renal"
  Classification: "0 (no)"
- Molecule: "Cn1c(=O)c2c(ncn2CC[N+](C)(C)C)n(C)c1=O"
  Study Target: "ACHN renal"
  Classification: "0 (no)"
- Molecule: "O=C1C(Cl)=C(Cl)C(=O)c2c1nc1n2CCCC1"
  Study Target: "ACHN renal"
  Classification: "1 (yes)"
- Molecule: "O=C(Cn1cc(CN2C(=O)c3ccccc3S2(=O)=O)nn1)Nc1ccc([N+](=O)[O-])cc1Cl"
  Study Target: "ACHN renal"
  Classification: "0 (no)"
- Molecule: "CCCCCn1cnc2c(=S)nc[nH]c21"
  Study Target: "ACHN renal"
  Classification: "0 (no)"
- Molecule: "CCCCCCNC(=O)Oc1ccc(/C(=C(\\C)c2ccccc2)c2ccc(OCCN(CC)CC)cc2)cc1"
  Study Target: "ACHN renal"
  Classification: "0 (no)"
- Molecule: "COC1/C=C\\OC2(C)Oc3c(C)c(O)c4c(O)c(c(CN(C)CCO)c(O)c4c3C2=O)NC(=O)/C(C)=C\\C=C/C(C)C(O)C(C)C(O)C(C)C(OC(C)=O)C1C (stereo not given)"
  Study Target: "ACHN renal"
  Classification: "0 (no)"
- Molecule: "COc1ccc2nc3cc(Cl)ccc3c(N3CCN(c4nccc(Nc5ccc(Cl)cc5)n4)CC3)c2c1"
  Study Target: "ACHN renal"
  Classification: "0 (no)"
- Molecule: "COc1cc(C(=O)/C=C/c2c(C)n([O-])c3ccc(C)cc3[n+]2=O)cc(OC)c1OC"
  Study Target: "ACHN renal"
  Classification: "1 (yes)"
- Molecule: "COc1ccc2nc3cc(Cl)ccc3c(N3CCN(c4ccnc(N5CCOCC5)n4)CC3)c2c1"
  Study Target: "ACHN renal"
  Classification: "0 (no)"
- Molecule: "CC(=O)Oc1ccc(Nc2c3ccccc3nc3ccccc23)cc1"
  Study Target: "ACHN renal"
  Classification: "1 (yes)"
- Molecule: "Cc1cc(OCc2ccc(C(F)(F)F)cc2)c2c(c1)C(=O)C=C(NCCN1CCCC1)C2=O"
  Study Target: "ACHN renal"
  Classification: "0 (no)"
- Molecule: "COc1cc(-c2cc(-c3nc4ccc(Cl)cc4[nH]3)[nH]n2)cc(OC)c1OC"
  Study Target: "ACHN renal"
  Classification: "0 (no)"
- Molecule: "COc1ccc(C2Nc3ccccc3-n3cccc32)cc1 (stereo not given)"
  Study Target: "ACHN renal"
  Classification: "0 (no)"
- Molecule: "CC(C)[C@H]1COC(=O)N1[C@@H]1C(=O)N([C@@H](CCC(=O)N2CCN(C3CCCC3)CC2)C(=O)N[C@@H]2CCCc3ccccc32)[C@@H]1/C=C/c1cccc(Br)c1"
  Study Target: "ACHN renal"
  Classification: "0 (no)"
- Molecule: "COCCOC(=O)C1=C(C)NC(=S)NC1c1ccc2c(c1)OCO2 (stereo not given)"
  Study Target: "ACHN renal"
  Classification: "0 (no)"
- Molecule: "O=C1c2cccnc2C(=O)c2c1c(C(=O)OCCN1CCOCC1)c1ccccn21"
  Study Target: "ACHN renal"
  Classification: "1 (yes)"
- Molecule: "Cc1cc2cc3cc(C)c(N(C)C)cc3[n+](C)c2cc1N(C)C"
  Study Target: "ACHN renal"
  Classification: "0 (no)"
- Molecule: "CCNS(=O)(=O)c1ncnc2nc[nH]c12"
  Study Target: "ACHN renal"
  Classification: "0 (no)"
- Molecule: "CS(=O)CCCCCN=C=S (stereo not given)"
  Study Target: "ACHN renal"
  Classification: "1 (yes)"
- Molecule: "CC(=O)Nc1ccc2c(c1)c(NC(C)=O)nn2C(=O)Nc1ccc(Cc2ccccc2)cc1"
  Study Target: "ACHN renal"
  Classification: "0 (no)"
- Molecule: "Cc1ccc2c(c1)O/C(=C\\c1cccc(OCC(=O)c3ccccc3)c1)C2=O"
  Study Target: "ACHN renal"
  Classification: "0 (no)"
- Molecule: "COc1ccc(-c2cc(-c3cccnc3)nc3sc4c(=O)n(-c5ccc(C)cc5)cnc4c23)cc1OC"
  Study Target: "ACHN renal"
  Classification: "0 (no)"
- Molecule: "COc1ccc(/C=C/C(=O)c2ccc(NC(=O)c3cc4cc5ccccc5nc4s3)cc2)cc1OC"
  Study Target: "ACHN renal"
  Classification: "0 (no)"
- Molecule: "Cn1c2ccccc2c2c3c(c4c5ccccc5n(CCCCCC#N)c4c21)C(=O)N(O)C3=O"
  Study Target: "ACHN renal"
  Classification: "1 (yes)"
- Molecule: "Cn1c2c(Cl)c(Cl)ccc2c2ccn3c(=O)c4ccccc4nc3c21"
  Study Target: "ACHN renal"
  Classification: "0 (no)"
- Molecule: "N#CC1=C(N)Oc2c(ccc3ccccc23)C1c1cccs1 (stereo not given)"
  Study Target: "ACHN renal"
  Classification: "0 (no)"
- Molecule: "COc1cccc(-n2cc(-c3nc(Nc4cc(C)[nH]n4)c4ccccc4n3)nn2)c1"
  Study Target: "ACHN renal"
  Classification: "0 (no)"
- Molecule: "COc1c(C2CC(=O)Nc3c2cnn3Cc2ccco2)cc2c(c1OC)OCO2 (stereo not given)"
  Study Target: "ACHN renal"
  Classification: "0 (no)"
- Molecule: "CN1CCN(Cc2ccc(NC(=O)c3cncc(C#Cc4cncc5nccnc45)c3)cc2C(F)(F)F)CC1"
  Study Target: "ACHN renal"
  Classification: "0 (no)"
- Molecule: "c1ccc2sc(SCCCn3ccnc3)nc2c1"
  Study Target: "ACHN renal"
  Classification: "0 (no)"
- Molecule: "O=C1C[C@H](N2C(=O)c3ccccc3S2(=O)=O)C2CO[C@@H]1O2"
  Study Target: "ACHN renal"
  Classification: "0 (no)"
- Molecule: "CCN(CC)CCCNc1cccc2c(SCc3ccccc3)ccnc12"
  Study Target: "ACHN renal"
  Classification: "0 (no)"
- Molecule: "COc1ccc(-c2csc(NC(=O)CN3CCN(c4cc5c(cc4F)c(=O)c(C(=O)O)cn5C4CC4)CC3)n2)cc1"
  Study Target: "ACHN renal"
  Classification: "0 (no)"
- Molecule: "C=C1C(=O)O[C@H]2[C@H]1CC/C(Cn1cc(Cn3ccc4cc(Cl)ccc43)nn1)=C\\CC[C@@]1(C)O[C@@H]21"
  Study Target: "ACHN renal"
  Classification: "1 (yes)"
- Molecule: "c1ccc(-c2nc(N3CCOCC3)c3c4c(sc3n2)CCCCC4)nc1"
  Study Target: "ACHN renal"
  Classification: "0 (no)"
- Molecule: "COc1cc2c(c(OC)c1OC)-c1ccc(N=NC(N)=S)c(=O)cc1[C@@H](NC(C)=O)CC2"
  Study Target: "ACHN renal"
  Classification: "0 (no)"
- Molecule: "C/C(=C(/c1ccc(O)cc1)c1ccc(OCCN(C)C)cc1)c1ccccc1"
  Study Target: "ACHN renal"
  Classification: "0 (no)"
